Tested on: COLO-824 (Breast Carcinoma);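 further: after 72 h of two-drug dosing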
assay-notes: Bliss excess, mean over the matrix (fraction); higher = more synergy
Each entry gets condition not met if its Bliss excess stays under -0.02, and condition met if its Bliss excess is -0.02 or above.

compound	label
CN(C)CCCOc1ccc(-c2ccc3ncc4c(c3c2)n(C2CCOCC2)c(=O)n4C)cn1 [AZD0156] + O=C(c1cc(Cc2n[nH]c(=O)c3ccccc23)ccc1F)N1CCN(C(=O)C2CC2)CC1 [Olaparib] (first compound max 3 µM, partner max 3 µM)	condition met
CN(CCO)CC[C@H](CSc1ccccc1)Nc1ccc(S(=O)(=O)NC(=O)c2ccc(N3CCC([C@@H](O)c4ccccc4-c4ccc(Cl)cc4)CC3)cc2)cc1S(=O)(=O)C(F)(F)F [AZD4320] + CCN(CCO)CCCOc1ccc2c(Nc3cc(CC(=O)Nc4cccc(F)c4)[nH]n3)ncnc2c1 [AZD2811] (first compound max 1 µM, 7x7, partner max 1 µM)	condition met
C[C@@H]1COCCN1c1cc(C2([S@](C)(=N)=O)CC2)nc(-c2ccnc3[nH]ccc23)n1 [AZD6738] + O=C(c1cc(Cc2n[nH]c(=O)c3ccccc23)ccc1F)N1CCN(C(=O)C2CC2)CC1 [Olaparib] (first compound max 10 µM, 7x7, partner max 10 µM)	condition not met
NC1(C(=O)N[C@@H](CCO)c2ccc(Cl)cc2)CCN(c2ncnc3[nH]ccc23)CC1 [Capivasertib] + C[C@@H]1COCCN1C2=NC(=NC(=C2)C3(CC3)[S@](=N)(=O)C)C4=C5C=CNC5=NC=C4 [AZD6738] (first compound max 10 µM, 7x7, partner max 10 µM)	condition not met
C[C@@H](c1ccc2nccn2c1)n1nnc2ncc(-c3cnn(C)c3)nc21 [Savolitinib] + Cc1c2c(nn1C)CSCc1cc(n(C)n1)CSc1cc(c3ccccc3c1)OCCCc1c(C(=O)O)n(C)c3c-2c(Cl)ccc13 [AZD5991] (first compound max 1 µM, 7x7, partner max 1 µM)	condition not met
Cc1c2c(nn1C)CSCc1cc(n(C)n1)CSc1cc(c3ccccc3c1)OCCCc1c(C(=O)O)n(C)c3c-2c(Cl)ccc13 [AZD5991] + CCN(CCO)CCCOc1ccc2c(Nc3cc(CC(=O)Nc4cccc(F)c4)[nH]n3)ncnc2c1 [AZD2811] (first compound max 1 µM, 7x7, partner max 1 µM)	condition met
Cc1cc2ncnn2cc1Nc1ncc2c(n1)n(C1CCOCC1)c(=O)n2C [AZD7648] + O=C(c1cc(Cc2n[nH]c(=O)c3ccccc23)ccc1F)N1CCN(C(=O)C2CC2)CC1 [Olaparib] (first compound max 10 µM, 7x7, partner max 10 µM)	condition met
